experiment.description: Toxicity to warm-blooded animals, LD50 on rats (oral)
reported.conditions: rat, in vivo, oral (stomach tube), dissolved in polyethylene glycol LUTROL
Listed compounds paired with reported LD50

Look over these answered cases.
CCOP(=S)(OCC(F)(F)C(F)F)Oc1cnc(C(C)(C)C)nc1 (stereo not drawn) [Example 2]
50 mg/kg
CCOP(=S)(OCC)Oc1cnc(C(C)(C)C)nc1 [Comparison compound (A), reference compound]
1 to 2.5 mg/kg

Switching to the query record.
Ask | Field request: LD50 | item: CCOP(=S)(OCC(F)(F)F)Oc1cnc(C(C)(C)C)nc1 (stereo not drawn) [Example 1]
Reply | 100 to 250 mg/kg
